System: OCI-LY10
Assay Protocol: CTG Cell Viability Assay - OCI-LY10
Type: cell-based, human
Reported Conditions: Homo sapiens, OCI-Ly10, 96 h, OCI-LY10, 4 days; read-out: CTG Cell Viability Assay - OCI-LY10: Average external-IC50
Reported IC50 is given for each of the following compounds.

Here is how some compounds turned out for IC50.
Compound	Target Or Test System	Result
O=C1CCC(N2C(=O)c3cccc(NCC4CC5(CCN(C(=O)[C@H]6CC[C@H](n7cc(NC(=O)c8cnn9ccc(N%10CCNCC%10)nc89)c(C(F)F)n7)CC6)CC5)C4)c3C2=O)C(=O)N1 (stereo partly shown)	OCI-LY10	100 to 500 nM
CN(CCCOCCCc1cccc2c1n(C)c(=O)n2[C@@H]1CCC(=O)NC1=O)C[C@H]1CC[C@H](n2cc(NC(=O)c3coc(-c4ccnc(NCC5CC5)c4)n3)c(C(F)F)n2)CC1 (single isomer, unassigned)	OCI-LY10	> 1000 nM
CN(C[C@H]1CC[C@H](n2cc(NC(=O)c3coc(-c4ccnc(NCC5CC5)c4)n3)c(C(F)F)n2)CC1)C1CCN(Cc2cccc3c2n(C)c(=O)n3[C@H]2CCC(=O)NC2=O)CC1	OCI-LY10	< 50 nM
CN(C[C@H]1CC[C@H](n2cc(NC(=O)c3cnn4ccc(N5C[C@H]6C[C@@H]5CO6)nc34)c(C(F)F)n2)CC1)C1CCC(CNc2cccc3c2C(=O)N(C2CCC(=O)NC2=O)C3=O)CC1 (stereo partly shown)	OCI-LY10	< 50 nM
Cn1c(=O)n(C2CCC(=O)NC2=O)c2cccc(CCCOC3CCN([C@H]4CC[C@@H](Nc5ncnc6ccc(C#N)cc56)CC4)CC3)c21 (stereo partly shown)	OCI-LY10	> 1000 nM

I would be grateful if you could share the reported IC50 for Cn1c(=O)n(C2CCC(=O)NC2=O)c2cccc(CC(=O)N3CC4(CCN(C[C@H]5CC[C@H](n6cc(NC(=O)c7cnn8ccc(N9C[C@H]%10C[C@@H]9CO%10)nc78)c(C(F)F)n6)CC5)CC4)C3)c21 (stereo partly shown) . > 1000 nM

Also, CN(C[C@@H]1CN(CCCc2ccc3c(c2)n(C)c(=O)n3C2CCC(=O)NC2=O)CCO1)C[C@H]1CC[C@H](n2cc(NC(=O)c3coc(-c4ccnc(NCC5CC5)c4)n3)c(C(F)F)n2)CC1 (stereo partly shown) please. 500 to 1000 nM

Try the compound Cn1c(=O)n(C2CCC(=O)NC2=O)c2cccc(CC[C@@H]3CN(C[C@H]4CC[C@H](C5N=C(NC(=O)c6cnn7ccc(N8CCCOCC8)nc67)C(C(F)F)=N5)CC4)CCO3)c21 (stereo partly shown) > 1000 nM

Similarly, CN(CCCOCCCNc1cccc2c1C(=O)N(C1CCC(=O)NC1=O)C2=O)C[C@H]1CC[C@H](n2cc(NC(=O)c3coc(-c4ccnc(N[C@H]5CCCC[C@H]5O)c4)n3)c(C(F)F)n2)CC1 (stereo partly shown) ? 50 to 100 nM

What do you get for O=C1CCC(N2C(=O)c3cccc(NCCCOC4CCN(C[C@H]5CC[C@H](n6cc(NC(=O)c7cnn8ccc(N[C@@H]9CCCC[C@@H]9O)nc78)c(C(F)F)n6)CC5)CC4)c3C2=O)C(=O)N1 (stereo partly shown) ? < 50 nM
